Provide the recorded combination Emax for the entries that follow.
System: NCI-H1435 (Non-Small Cell Lung Carcinoma)
MEASUREMENT NOTES: combination Emax (second highest fraction inhibited in the dose matrix, 72 h); higher = more inhibition; extreme values may be limits of the assay
Output spec: single numeric token, no unit.

So for C=CCn1c(=O)c2cnc(Nc3ccc(N4CCN(C)CC4)cc3)nc2n1-c1cccc(C(C)(C)O)n1 [AZD1775] + C1CN(CCC1(C(=O)N[C@@H](CCO)C2=CC=C(C=C2)Cl)N)C3=NC=NC4=C3C=CN4 [Capivasertib] (first compound max 3 µM, partner max 3 µM) , the logged combination Emax turned out to be 0.442

Record summary for CN(CCO)CC[C@H](CSc1ccccc1)Nc1ccc(S(=O)(=O)NC(=O)c2ccc(N3CCC([C@@H](O)c4ccccc4-c4ccc(Cl)cc4)CC3)cc2)cc1S(=O)(=O)C(F)(F)F [AZD4320] + CC(=O)O[C@H]1C(=O)[C@@]2(C)[C@H]([C@H](OC(=O)c3ccccc3)[C@]3(O)C[C@H](OC(=O)[C@H](O)[C@@H](NC(=O)c4ccccc4)c4ccccc4)C(C)=C1C3(C)C)[C@]1(OC(C)=O)CO[C@@H]1C[C@@H]2O [Paclitaxel] (first compound max 1 µM, 7x7, partner max 3 µM) : reported combination Emax = 0.929

In plain terms, CC(=O)c1c(C)c2cnc(Nc3ccc(N4CCNCC4)cn3)nc2n(C2CCCC2)c1=O [Palbociclib] + Cc1c2c(nn1C)CSCc1cc(n(C)n1)CSc1cc(c3ccccc3c1)OCCCc1c(C(=O)O)n(C)c3c-2c(Cl)ccc13 [AZD5991] (first compound max 10 µM, 7x7, partner max 1 µM) has a documented combination Emax of 0.171

get_value(item= CC1(C)CCC(CN2CCN(c3ccc(C(=O)NS(=O)(=O)c4ccc(NCC5CCOCC5)c([N+](=O)[O-])c4)c(Oc4cnc5[nH]ccc5c4)c3)CC2)=C(c2ccc(Cl)cc2)C1 [Venetoclax] + C[C@@H](Nc1cc(F)cc(F)c1)c1cc(C(=O)N(C)C)cc2c(=O)cc(N3CCOCC3)oc12 [AZD8186] (first compound max 1 µM, 7x7, partner max 3 µM) , readout=combination Emax) returns 0.203

Per the record, C[C@@H]1COCCN1c1cc(C2([S@](C)(=N)=O)CC2)nc(-c2ccnc3[nH]ccc23)n1 [AZD6738] + C1CC(C1)(C(=O)[O-])C(=O)[O-].N.N.[Pt+2] [Carboplatin] (first compound max 10 µM, 7x7, partner max 10 µM) has combination Emax of 0.136

Reported combination Emax of CC(=O)c1c(C)c2cnc(Nc3ccc(N4CCNCC4)cn3)nc2n(C2CCCC2)c1=O [Palbociclib] + CC1(C)CCC(CN2CCN(c3ccc(C(=O)NS(=O)(=O)c4ccc(NCC5CCOCC5)c([N+](=O)[O-])c4)c(Oc4cnc5[nH]ccc5c4)c3)CC2)=C(c2ccc(Cl)cc2)C1 [Venetoclax] (first compound max 10 µM, 7x7, partner max 1 µM) : 0.132

COc1cccc(OCCCN)c1-c1cc(Nc2cnc(C#N)cn2)n[nH]1 [Prexasertib] + C[C@@H]1COCCN1C2=NC(=NC(=C2)C3(CC3)[S@](=N)(=O)C)C4=C5C=CNC5=NC=C4 [AZD6738] (first compound max 1 µM, 7x7, partner max 10 µM) yielded combination Emax of 0.283

Notebook: COc1cccc(OCCCN)c1-c1cc(Nc2cnc(C#N)cn2)n[nH]1 [Prexasertib] + C=CCn1c(=O)c2cnc(Nc3ccc(N4CCN(C)CC4)cc3)nc2n1-c1cccc(C(C)(C)O)n1 [AZD1775] (first compound max 1 µM, partner max 1 µM) , combination Emax read as 0.403

In plain terms, Cc1c2c(nn1C)CSCc1cc(n(C)n1)CSc1cc(c3ccccc3c1)OCCCc1c(C(=O)O)n(C)c3c-2c(Cl)ccc13 [AZD5991] + Cc1cc2ncnn2cc1Nc1ncc2c(n1)n(C1CCOCC1)c(=O)n2C [AZD7648] (first compound max 1 µM, 7x7, partner max 10 µM) has a documented combination Emax of 0.211

Recorded result, CS(=O)(=O)CCNCc1ccc(-c2ccc3ncnc(Nc4ccc(OCc5cccc(F)c5)c(Cl)c4)c3c2)o1 [Lapatinib] + NC1(c2ccc(-c3nc4ccn5c(=O)[nH]nc5c4cc3-c3ccccc3)cc2)CCC1 [MK-2206] (first compound max 10 µM, 7x7, partner max 10 µM) , combination Emax: 0.665

Looking up Cc1c2c(nn1C)CSCc1cc(n(C)n1)CSc1cc(c3ccccc3c1)OCCCc1c(C(=O)O)n(C)c3c-2c(Cl)ccc13 [AZD5991] + CCN(CCO)CCCOc1ccc2c(Nc3cc(CC(=O)Nc4cccc(F)c4)[nH]n3)ncnc2c1 [AZD2811] (first compound max 1 µM, 7x7, partner max 1 µM) , I found its combination Emax recorded as 0.313

The recorded combination Emax for Cc1c2c(nn1C)CSCc1cc(n(C)n1)CSc1cc(c3ccccc3c1)OCCCc1c(C(=O)O)n(C)c3c-2c(Cl)ccc13 [AZD5991] + C[C@@H]1COCCN1C2=NC(=NC(=C2)C3(CC3)[S@](=N)(=O)C)C4=C5C=CNC5=NC=C4 [AZD6738] (first compound max 1 µM, 7x7, partner max 10 µM) is 0.217

Short answer for C[C@@H](Oc1cc(-c2cnn(C3CCNCC3)c2)cnc1N)c1c(Cl)ccc(F)c1Cl [Crizotinib] + Cn1cnc2c(F)c(Nc3ccc(Br)cc3Cl)c(C(=O)NOCCO)cc21 [Selumetinib] (first compound max 10 µM, 7x7, partner max 10 µM) : combination Emax was 0.136

---

System: HT-144 (Melanoma)
MEASUREMENT NOTES: combination Emax (second highest fraction inhibited in the dose matrix, 72 h); higher = more inhibition; extreme values may be limits of the assay
MEASUREMENT NAME: combination Emax

Reported combination Emax (HT-144 (Melanoma)) for entry CC1(C)CCC(CN2CCN(c3ccc(C(=O)NS(=O)(=O)c4ccc(NCC5CCOCC5)c([N+](=O)[O-])c4)c(Oc4cnc5[nH]ccc5c4)c3)CC2)=C(c2ccc(Cl)cc2)C1 [Venetoclax] + CCN(CCO)CCCOc1ccc2c(Nc3cc(CC(=O)Nc4cccc(F)c4)[nH]n3)ncnc2c1 [AZD2811] (first compound max 1 µM, 7x7, partner max 1 µM) is 0.266

I looked up COc1cc2ncnc(Nc3ccc(F)c(Cl)c3)c2cc1OCCCN1CCOCC1 [Gefitinib] + CC(C)n1c(=O)n(C)c2cnc3cc(F)c(-c4ccc(OCCCN5CCCCC5)nc4)cc3c21 [AZD1390] (first compound max 10 µM, 7x7, partner max 0.3 µM) and its combination Emax for HT-144 (Melanoma) was 0.314

---

System: SUP-HD1 (Hodgkin's Lymphoma)
MEASUREMENT NOTES: combination Emax (second highest fraction inhibited in the dose matrix, 72 h); higher = more inhibition; extreme values may be limits of the assay
Please enter Y where combination Emax is greater than or equal to 0.8, and N where it is lower.

Request: Check the entry CCN(CCO)CCCOc1ccc2c(Nc3cc(CC(=O)Nc4cccc(F)c4)[nH]n3)ncnc2c1 [AZD2811] + O=C(c1cc(Cc2n[nH]c(=O)c3ccccc23)ccc1F)N1CCN(C(=O)C2CC2)CC1 [Olaparib] (first compound max 1 µM, 7x7, partner max 10 µM) : does combination Emax equal or exceed 0.8?
Result: N

Request: API: above_or_equal(metric=combination Emax, cutoff=0.8) for item Cc1cc2ncnn2cc1Nc1ncc2c(n1)n(C1CCOCC1)c(=O)n2C [AZD7648] + CN(C)CCCOc1ccc(-c2ccc3ncc4c(c3c2)n(C2CCOCC2)c(=O)n4C)cn1 [AZD0156] (first compound max 10 µM, 7x7, partner max 1 µM)
Result: N

Request: Hi, just wondering whether CN(CCO)CC[C@H](CSc1ccccc1)Nc1ccc(S(=O)(=O)NC(=O)c2ccc(N3CCC([C@@H](O)c4ccccc4-c4ccc(Cl)cc4)CC3)cc2)cc1S(=O)(=O)C(F)(F)F [AZD4320] + Cn1cnc2c(F)c(Nc3ccc(Br)cc3Cl)c(C(=O)NOCCO)cc21 [Selumetinib] (first compound max 1 µM, 7x7, partner max 3 µM) shows combination Emax of 0.8 or higher.
Result: Y

Request: Could you verify whether the entry CN(CCO)CC[C@H](CSc1ccccc1)Nc1ccc(S(=O)(=O)NC(=O)c2ccc(N3CCC([C@@H](O)c4ccccc4-c4ccc(Cl)cc4)CC3)cc2)cc1S(=O)(=O)C(F)(F)F [AZD4320] + CN(C)CCCOc1ccc(-c2ccc3ncc4c(c3c2)n(C2CCOCC2)c(=O)n4C)cn1 [AZD0156] (first compound max 1 µM, 7x7, partner max 1 µM) shows combination Emax of no less than 0.8?
Result: Y

Request: Hi, just wondering whether COc1nnc2ccc(N3CCC(c4ccc(OCCN5CCN(C)C(=O)[C@H]5C)cc4)CC3)nn12 [AZD5153] + Cn1cnc2c(F)c(Nc3ccc(Br)cc3Cl)c(C(=O)NOCCO)cc21 [Selumetinib] (first compound max 1 µM, 7x7, partner max 10 µM) shows combination Emax of 0.8 or higher.
Result: N

Request: Could you verify whether the entry Cc1c2c(nn1C)CSCc1cc(n(C)n1)CSc1cc(c3ccccc3c1)OCCCc1c(C(=O)O)n(C)c3c-2c(Cl)ccc13 [AZD5991] + CC1(C)CCC(CN2CCN(c3ccc(C(=O)NS(=O)(=O)c4ccc(NCC5CCOCC5)c([N+](=O)[O-])c4)c(Oc4cnc5[nH]ccc5c4)c3)CC2)=C(c2ccc(Cl)cc2)C1 [Venetoclax] (first compound max 1 µM, 7x7, partner max 1 µM) shows combination Emax of no less than 0.8?
Result: Y

Request: Assess whether reported combination Emax for CN(C)CCCOc1ccc(-c2ccc3ncc4c(c3c2)n(C2CCOCC2)c(=O)n4C)cn1 [AZD0156] + O=C(c1cc(Cc2n[nH]c(=O)c3ccccc23)ccc1F)N1CCN(C(=O)C2CC2)CC1 [Olaparib] (first compound max 3 µM, partner max 3 µM) sits at 0.8 or higher.
Result: N

Request: Does the reported combination Emax for COc1cc2c(cc1OCCCCCOc1cc3c(cc1OC)C(=O)N1C=C(C)C[C@H]1C=N3)N=C[C@@H]1CC(C)=CN1C2=O [SG3199] + O=C(c1cc(Cc2n[nH]c(=O)c3ccccc23)ccc1F)N1CCN(C(=O)C2CC2)CC1 [Olaparib] (first compound max 0.001 µM, 7x7, partner max 10 µM) fall at or above the 0.8 mark?
Result: N
